Data provenance is the supplement of paper PMC6555819.

Test system: VDR:RXRa (NR concentration 270 nM, RXRa partner concentration 90 nM)
measurement_protocol: PBM binding z-score (relative to random genomic background probes); higher = stronger binding; sequences stand for … in GC…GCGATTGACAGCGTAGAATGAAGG
Mark 0.0 for PBM binding z-score values under 3, and 1.0 for everything at or above.

See these solved cases before continuing.
In [3]: df
Out[3]:
                       entry_sequence  class_label
0  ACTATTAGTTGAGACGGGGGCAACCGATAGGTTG          0.0
1  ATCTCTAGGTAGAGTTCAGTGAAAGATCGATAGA          0.0
2  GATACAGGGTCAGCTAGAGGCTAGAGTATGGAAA          0.0
3  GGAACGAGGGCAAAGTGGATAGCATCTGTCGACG          0.0

IN: Please tell me: is the sequence `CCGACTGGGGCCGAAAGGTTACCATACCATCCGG` at or over 3 in terms of PBM binding z-score?
OUT: 0.0

IN: hey, is PBM binding z-score for this one >= 3? `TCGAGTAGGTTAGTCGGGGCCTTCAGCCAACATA`
OUT: 0.0

IN: For this sequence, is measured PBM binding z-score 3 or higher? `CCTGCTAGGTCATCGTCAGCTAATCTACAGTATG`
OUT: 0.0

IN: Is PBM binding z-score for `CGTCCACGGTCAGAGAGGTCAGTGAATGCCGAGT` at or above 3?
OUT: 1.0
